- experimentalTarget: PDE5 obtained from bovine aorta (Bos taurus)
property: IC50 (nM)

>>> print(df.to_string())
                                   molecule  unitstext  resultnumber
0  COc1ccc([C@@H]2c3[nH]c4ccccc4c3C[C@@H]3C(=O)N(CCCN(C)C)CC(=O)N23)cc1 [Example 11]         nM           650
1  COC(=O)CN1CC(=O)N2[C@H](c3ccc4c(c3)OCO4)c3[nH]c4ccccc4c3C[C@@H]2C1=O [Example 19]         nM             4
2  COc1ccc([C@@H]2c3[nH]c4ccccc4c3C[C@@H]3C(=O)N(CCCN4CCN(C)CC4)CC(=O)N23)cc1 [Example 12]         nM           100

====

- experimentalTarget: human recombinant PDE5 (Homo sapiens, UniProt O76074)
- assayText: cGMP-PDE one-step inhibition assay, human recombinant PDE5
- assayContext: 0.15 μM 8-[H3]-cGMP, 30 min incubation
pIC50: −log10 of the molar value.
Entries and their pIC50 values follow.
property: pIC50

>>> df
                                   compound                        experimentaltarget  resultnumber
0  COC(=O)c1ccc(CN2CC(=O)N3[C@H](c4ccc5c(c4)OCO5)c4[nH]c5ccccc5c4C[C@@H]3C2=O)cc1  human recombinant PDE5 (Homo sapiens, UniProt O76074)          7.70
1  CON1CC(=O)N2[C@H](c3ccc4c(c3)OCO4)c3[nH]c4ccccc4c3C[C@@H]2C1=O  human recombinant PDE5 (Homo sapiens, UniProt O76074)          8.60
2  NS(=O)(=O)c1ccc(CCN2CC(=O)N3[C@H](c4ccc5c(c4)OCO5)c4[nH]c5ccccc5c4C[C@@H]3C2=O)cc1 [Example 1]  human recombinant PDE5 (Homo sapiens, UniProt O76074)          8.85
3  O=C1[C@H]2Cc3c([nH]c4ccccc34)[C@@H](c3ccc4c(c3)OCO4)N2C(=O)CN1CCCn1cccn1  human recombinant PDE5 (Homo sapiens, UniProt O76074)          8.20
4  CCCCCCCCOC(=O)CN1CC(=O)N2[C@H](c3ccc4c(c3)OCO4)c3[nH]c4ccccc4c3C[C@@H]2C1=O  human recombinant PDE5 (Homo sapiens, UniProt O76074)          6.96
5  O=C(CN1CC(=O)N2[C@H](c3ccc4c(c3)OCO4)c3[nH]c4ccccc4c3C[C@@H]2C1=O)Nc1ccncc1  human recombinant PDE5 (Homo sapiens, UniProt O76074)          8.41
6  O=C1[C@H]2Cc3c([nH]c4ccccc34)[C@@H](c3ccc4c(c3)OCO4)N2C(=O)CN1CCCN1CCOCC1  human recombinant PDE5 (Homo sapiens, UniProt O76074)          7.40

====

- experimentalTarget: human recombinant PDE5 (Homo sapiens)
- assayText: cGMP-PDE one-step inhibition assay, human recombinant PDE5
- assayContext: 0.15 μM 8-[H3]-cGMP, 30 min incubation
pIC50: −log10 of the molar value.
Entries and their pIC50 values follow.
property: pIC50

>>> print(df.to_string())
                                   compound  property  resultnumber
0  O=C1[C@H]2Cc3c([nH]c4ccccc34)[C@@H](c3ccc4c(c3)OCO4)N2C(=O)CN1CCOCCO     pIC50          8.00
1  O=C(CN1CC(=O)N2[C@H](c3ccc4c(c3)OCO4)c3[nH]c4ccccc4c3C[C@@H]2C1=O)N1CCCCC1     pIC50          7.70
2  O=C1[C@H]2Cc3c([nH]c4ccccc34)[C@@H](c3ccc4c(c3)OCO4)N2C(=O)CN1O     pIC50          8.12
3  O=C(O)CCN1CC(=O)N2[C@H](c3ccc4c(c3)OCO4)c3[nH]c4ccccc4c3C[C@@H]2C1=O [Example 72]     pIC50          8.64
4  COCCN1CC(=O)N2[C@H](c3ccc4c(c3)OCO4)c3[nH]c4ccccc4c3C[C@@H]2C1=O     pIC50          8.23
5  O=C1[C@H]2Cc3c([nH]c4ccccc34)[C@@H](c3ccc4c(c3)OCO4)N2C(=O)CN1CCCn1ccnc1     pIC50          8.00
6  O=C1[C@H]2Cc3c([nH]c4ccccc34)[C@@H](c3ccc4c(c3)OCO4)N2C(=O)CN1Cc1cccc(NS(=O)(=O)C(F)(F)F)c1     pIC50          8.77
